# Assay text: Quantitative highthroughput screen to assess conditional lethalithy of NOMO1 cells grown in RPMI1640 with untreated serum (RPMI+s) (AID 1963876); also: nearly all actives have a fitted effect of over 35% in size; also: potency is read from the fitted curve at half-maximal effect;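 as to viability: 100% = DMSO wells and 0% = empty wells without cells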
# Test settings: NOMO1 AML cells in RPMI+serum, CellTiter-Glo viability, 48 h; series mostly up to 45.8 µM
Results filed as inconclusive are left out. Active and inactive are the calls of the source. Calls follow the shape of the dose curve; as a rule, active = well fitted cell-killing curve with a large enough effect; inconclusive = small, poorly fitted or top-dose-only effect; inactive = flat fitted curve, though single readings scatter.
Endpoint label: Potency

| Given smiles | Endpoint label | Result |
| --- | --- | --- |
| COc1ccc2[nH]cc(CCNC(C)=O)c2c1 | Potency | inactive |
| COc1ccc(-c2nc(N3CCOCC3)c3sc(CN(C)c4ncc(C(=O)NO)cn4)cc3n2)cn1 | Potency | 20.9 nM (active) |
| Cc1cc(CN2CCN(c3c(Br)cnc4nc(-c5ccc(N6CCN(C)CC6)cc5)[nH]c34)CC2)no1 | Potency | inactive |
| CC(C)OC(=O)CCCC=CC[C@@H]1[C@H](C=C[C@@H](O)COc2cccc(C(F)(F)F)c2)[C@H](O)C[C@@H]1O | Potency | 33200 nM (active) |

# next molecule below
// recorded Potency for COCCOc1nc(-c2ccc(Cl)c(Cl)c2)n(-c2ccc(NC(=O)CCl)cc2)n1 : inactive

---

# Assay text: Quantitative highthroughput screen to assess conditional lethalithy of NOMO1 cells grown in RPMI1640 with untreated serum (RPMI+s) (AID 1963876); also: nearly all actives have a fitted effect of over 35% in size;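 as to viability: 100% = DMSO wells and 0% = empty wells without cells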
# Test settings: NOMO1 AML cells in RPMI+serum, CellTiter-Glo viability, 48 h; series mostly up to 45.8 µM
Results filed as inconclusive are left out. Activity calls are given as the source filed them. The call rests on the fitted dose curve; in most records, active means well fitted cell-killing curve with a large enough effect; inconclusive means small, poorly fitted or top-dose-only effect; inactive means flat fitted curve, though single readings scatter.
Lab note: assign the record to one of active, inactive

Answer briefly: the call reported for CC(C)(C)c1cnc(CSc2cnc(NC(=O)C3CCNCC3)s2)o1 in this assay.
active

Answer briefly: the call reported for OCCCNc1cc(-c2ccnc(Nc3cccc(Cl)c3)n2)ccn1 in this assay.
active

Answer briefly: the call reported for CC(C)(Sc1ccc(CCN(CCCCC2CCCCC2)C(=O)NC2CCCCC2)cc1)C(=O)O in this assay.
inactive

Answer briefly: the call reported for Cc1cc(Nc2ncnc3ccc(-c4ccc(CNCCS(C)(=O)=O)o4)cc23)ccc1Oc1ccn2ncnc2c1 in this assay.
active

Answer briefly: the call reported for CC1(C)NC(=O)N(c2ccc([N+](=O)[O-])c(C(F)(F)F)c2)C1=O in this assay.
inactive

Answer briefly: the call reported for N[C@@H](Cc1cc(I)c(Oc2cc(I)c(O)c(I)c2)c(I)c1)C(=O)O in this assay.
inactive

Answer briefly: the call reported for CN(C)CCCNC(=O)c1ccc(-c2cc(O)c3ncccc3c2)cc1 in this assay.
inactive

Answer briefly: the call reported for c1cncc(CN2CCC(n3ncc4c(N5CCOCC5)nc(-c5ccc6[nH]ccc6c5)nc43)CC2)c1 in this assay.
active

Answer briefly: the call reported for O=C(NOC[C@H](O)CO)c1ccc(F)c(F)c1Nc1ccc(I)cc1F in this assay.
active

Answer briefly: the call reported for CC1=C(CC(=O)O)c2cc(F)ccc2C1=Cc1ccc(S(C)=O)cc1 (configuration not stated) in this assay.
inactive

Answer briefly: the call reported for Cc1ccc(C2=Nc3ccc(Cl)cc3OC2)cc1 in this assay.
inactive

Answer briefly: the call reported for NC(=O)[C@@H](CCC(F)(F)F)N(Cc1ccc(-c2ncon2)cc1F)S(=O)(=O)c1ccc(Cl)cc1 in this assay.
inactive

Answer briefly: the call reported for Cc1ccccc1C(C(=O)NC1CCCCC1)N(C(=O)CNc1ccc(C#N)cc1)c1cccc(F)c1 (configuration not stated) in this assay.
inactive

Answer briefly: the call reported for O=C(O)[C@H](CC(=O)N1C[C@@H]2CCCC[C@H]2C1)Cc1ccccc1 in this assay.
inactive

Answer briefly: the call reported for COc1ccc(Nc2nccc(NCCO)n2)cc1 in this assay.
inactive

Answer briefly: the call reported for Cc1cccc(N(C)C(=S)Oc2ccc3ccccc3c2)c1 in this assay.
inactive

Answer briefly: the call reported for CN(C)CC(=O)N1CCC(c2ccc(NC(=O)c3ncc(C#N)[nH]3)c(C3=CCCCC3)c2)CC1 in this assay.
inactive

Answer briefly: the call reported for Oc1ccc2ccccc2c1SSc1c(O)ccc2ccccc12 in this assay.
inactive

Answer briefly: the call reported for c1ccc2c(Cc3c[nH]c4ccccc34)c[nH]c2c1 in this assay.
inactive

Answer briefly: the call reported for CC1(O)CC(c2nc(-c3ccc4ccc(-c5ccccc5)nc4c3)c3c(N)nccn23)C1 (configuration not stated) in this assay.
active

Answer briefly: the call reported for Fc1ccc(CNc2ncnc3ccc(F)cc23)cc1 in this assay.
inactive

Answer briefly: the call reported for Cc1ccc2c(c1)c1c(n2CCc2ccc(C)nc2)CCN(C)C1 in this assay.
inactive

---

# Assay text: Quantitative highthroughput screen to assess conditional lethalithy of P12 Ichikawa cells grown in Human Plasma-Like Medium with dialyzed fetal bovine serum (HPLM+ds) (AID 1963879); also: nearly all actives have a fitted effect of over 35% in size
# Test settings: ATP luminescence, 48 h; viability; series mostly up to 45.8 µM
Results filed as inconclusive are left out. The source made the active and inactive calls. Calls follow the shape of the dose curve; as a rule, active = well fitted cell-killing curve with a large enough effect; inconclusive = small, poorly fitted or top-dose-only effect; inactive = flat fitted curve, though single readings scatter.
Lab note: assign the record to one of yes (1) (active), no (0) (inactive)

Answer briefly: the call reported for COc1ccccc1N1CCN(CCN(C(=O)C2CCCCC2)c2ccccn2)CC1 in this assay.
no (0)

Answer briefly: the call reported for CCn1c(C(=O)N(C2CC2)C2CC2)cc2c3c(ncn3C)c(Nc3cc(C)n(C)n3)nc21 in this assay.
no (0)

Answer briefly: the call reported for CC(C)(O)CCc1ccc(OCc2cc(-c3cccc(OC(F)F)c3)c3ncccc3c2)cc1 in this assay.
no (0)

Answer briefly: the call reported for CC(NCc1ccc2c(c1)nc(NC(=O)c1ccc(-c3cn[nH]c3)s1)n2CC(C)(C)O)C(C)(C)C (centres undefined) in this assay.
yes (1)

Answer briefly: the call reported for Cc1cc(Nc2ncnc3ccc(-c4ccc(CNCCS(C)(=O)=O)o4)cc23)ccc1Oc1ccn2ncnc2c1 in this assay.
yes (1)

Answer briefly: the call reported for O=C(O)C=Cc1ccc(O)c(O)c1 in this assay.
yes (1)

Answer briefly: the call reported for C[C@@H]1CC[C@@]2(OC1)OC1CC3C4CC=C5CC(O)CCC5(C)C4CCC3(C)C1[C@@H]2C (some centres undefined) in this assay.
yes (1)

Answer briefly: the call reported for COc1cccc2c1C(=O)c1c(O)c3c(c(O)c1C2=O)C[C@@](O)(C(=O)CO)C[C@@H]3O[C@H]1C[C@H](N)[C@@H](O)[C@H](C)O1 in this assay.
yes (1)

Answer briefly: the call reported for CN(C)c1cc(NC(=O)CNC(C)(C)C)c(O)c2c1C[C@@H]1C[C@H]3[C@H](N(C)C)C(=O)C(C(N)=O)=C(O)[C@@]3(O)C(=O)C1=C2O in this assay.
no (0)

---

# Assay text: Viability qHTS for spleen associated tyrosine kinase inhibitor (SYKi) naive MV4-11 cells (AID 1963823); also: nearly all actives have a fitted effect of over 40% in size
# Test settings: MV4-11 AML viability, CellTiter-Glo luminescence, 72 h; series mostly up to 45 µM
Results filed as inconclusive are left out. The source made the active and inactive calls. Calls follow the shape of the dose curve; as a rule, active = well fitted cell-killing curve with a large enough effect; inconclusive = small, poorly fitted or top-dose-only effect, or effect the other way; inactive = no such curve, though single readings can be large or run the other way.
Lab note: assign the record to one of active, inactive

Answer briefly: the call reported for O=C(O)COCCN1CCN([C@H](c2ccccc2)c2ccc(Cl)cc2)CC1 in this assay.
inactive

Answer briefly: the call reported for CC(=O)c1ccc(O[C@@H]2OC[C@@H](O)[C@H](O)[C@H]2O[C@]2(CO)O[C@H](CO)[C@@H](O)[C@@H]2O)c(O)c1 in this assay.
inactive

Answer briefly: the call reported for Cc1ccc(NC(=O)Nc2nnc(Sc3ncnc4cc(OCCCN5CCOCC5)ccc34)s2)cc1 in this assay.
active

Answer briefly: the call reported for COc1ccc(-n2nc(C(N)=O)c3c2C(=O)N(c2ccc(N4CCCCC4=O)cc2)CC3)cc1 in this assay.
inactive

Answer briefly: the call reported for COC1=CC(=O)O[C@@H](/C=C/c2ccccc2)[C@@H]1O in this assay.
inactive

Answer briefly: the call reported for CCN1CCN(Cc2ccc(-c3cc4c(NC(C)c5ccccc5)ncnc4[nH]3)cc2)CC1 (centres undefined) in this assay.
active

Answer briefly: the call reported for C/C=C1\[C@H](O[C@@H]2O[C@H](CO)[C@@H](O)[C@H](O)[C@H]2O)OC=C(C(=O)O)[C@H]1CC(=O)OCCc1ccc(O)cc1 in this assay.
inactive

Answer briefly: the call reported for O=C1C(=O)c2ccccc2C(O)=C1C1CCC(c2ccc(Cl)cc2)CC1 (centres undefined) in this assay.
inactive

Answer briefly: the call reported for CCC(=O)c1ccc(O)cc1 in this assay.
inactive

Answer briefly: the call reported for O=C(NCc1ccc(S(=O)(=O)c2cccc(C(F)(F)F)c2)cc1)c1cnc2[nH]ncc2c1 in this assay.
active

Answer briefly: the call reported for O=C(Cc1ccc(Cl)cc1)Nc1cnccc1C(=O)O in this assay.
inactive

Answer briefly: the call reported for COC(=O)C1=C[C@@H](O)[C@@H](O)[C@H](O[C@@H]2O[C@H](CO)[C@@H](O)[C@H](O)[C@H]2OC(=O)/C=C/c2ccccc2)C1 in this assay.
inactive

Answer briefly: the call reported for CC(=O)[C@@]1(O)CC[C@H]2[C@@H]3C[C@H](C)C4=CC(=O)C=C[C@]4(C)[C@@]3(F)[C@@H](O)C[C@@]21C in this assay.
inactive

Answer briefly: the call reported for C/C=C/C=C/C(CC(=O)O)Nc1ccc(C=O)cc1 (centres undefined) in this assay.
inactive

Answer briefly: the call reported for CCc1cc2c(cc1N1CCC(N3CCOCC3)CC1)C(C)(C)c1[nH]c3cc(C#N)ccc3c1C2=O in this assay.
active

Answer briefly: the call reported for CNC(=O)c1cnn(-c2nc(N)c3ncn([C@@H]4O[C@H](CO)[C@@H](O)[C@H]4O)c3n2)c1 in this assay.
inactive

Answer briefly: the call reported for CC(C)(C)C(=O)Oc1ccc2c(c1)nc(NC(=O)c1cccc([N+](=O)[O-])c1)n2CCCO in this assay.
active

Answer briefly: the call reported for O=C(NCCCNC(=O)c1ccc[nH]c1=O)c1cc(-c2ccccc2)on1 in this assay.
active

Answer briefly: the call reported for CCCCOc1ccc(C(=O)Nc2ccc(F)cc2F)cc1 in this assay.
inactive
